Task for the reader: assign each of the following compounds its reported Inhibition.
# System: Plasmodium falciparum
# experiment: GSK_TCMDC: Inhibition of Plasmodium falciparum 3D7 in whole red blood cells, using parasite LDH activity as an index of growth. Test compounds present at 2uM
# Format: functional
A complete answer gives the number and then names the unit.

State the recorded Inhibition for every item in the following list.
1. COc1ccc(NC(=O)CCNc2cc(C)nc(NCc3ccccc3C)n2)cc1.O=C(O)C(F)(F)F
2. O=C(c1cc2ccccc2o1)N1CCc2cc3nccc(N4CCN5CCC[C@H]5C4)c3cc21
3. Cc1cc(OCCCN2CCC(NS(=O)(=O)c3cccc(Br)c3)CC2)c2ccccc2n1
4. O=C(Nc1ccc(-c2nc3ccccc3[nH]2)cc1)c1ccc(-c2cccc([N+](=O)[O-])c2)o1
5. CC(C)NCc1ccc(-c2cccc(NC(=O)c3ccc(F)cc3)c2)cc1.O=C(O)C(F)(F)F

Given back:
94%
99%
95%
100%
91%
